B1: RHOBTB1 (parent)
chain: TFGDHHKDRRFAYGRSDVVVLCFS

# Variants of: B1
# TEST DETAILS: protein stability index of a GFP-peptide fusion (GPS, HEK-293T) (PSI 1-6); higher = more stable;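 further: lentivirally expressed fusions sorted by FACS into six bins by GFP to DsRed ratio, PSI derived from sequencing read proportions per bin multiplied by bin number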
# MEASUREMENT CONDITIONS: c terminus: a fixed tail appended
REPORTED PROPERTY: protein stability index

| CHANGES | RESULT |
| --- | --- |
| F23P | 2.16 |

Task item: protein stability index for D8G ?
Reply: 1.87

Task item: protein stability index for C22E ?
Reply: 2.2

Task item: protein stability index for C22W ?
Reply: 2.73

Task item: protein stability index for S16M ?
Reply: 2.96

Task item: protein stability index for R10I ?
Reply: 1.96

Task item: protein stability index for H6F ?
Reply: 2.33

Task item: protein stability index for C22T ?
Reply: 1.3

Task item: protein stability index for A12Q ?
Reply: 2.33

Task item: protein stability index for R9E ?
Reply: 2.75
